Recorded values, source patent US20260234107A1.

System: monoamine oxidase A and B (MAO-A and MAO-B)
method-summary: Stability in the presence of monoamine oxidases (human liver mitochondria preparation)
condition-details: human liver mitochondria, t = 60 min
Recorded measurements of Remaining (t = 60 min), one per entry
measure-name: Remaining (t = 60 min) (%)

1. CN(C)CCc1c[nH]c2ccccc12 [DMT, N,N-dimethyltryptamine, reference compound]    8.9
2. CNCCc1cn(C(C)C)c2cc(F)cc(O)c12 [Compound 12]    104.0
3. NCCc1c[nH]c2ccc(F)c(O)c12 [Compound 30, 3-(2-aminoethyl)-5-fluoro-1H-indol-4-ol]    0.0
4. CCNCCc1c[nH]c2cccc(O)c12 [Compound 5, 3-(2-(ethylamino)ethyl)-1H-indol-4-ol]    76.2

###

experimental-target: 5-HT2A (Homo sapiens, UniProt P28223)
Sequence (P28223 whole entry): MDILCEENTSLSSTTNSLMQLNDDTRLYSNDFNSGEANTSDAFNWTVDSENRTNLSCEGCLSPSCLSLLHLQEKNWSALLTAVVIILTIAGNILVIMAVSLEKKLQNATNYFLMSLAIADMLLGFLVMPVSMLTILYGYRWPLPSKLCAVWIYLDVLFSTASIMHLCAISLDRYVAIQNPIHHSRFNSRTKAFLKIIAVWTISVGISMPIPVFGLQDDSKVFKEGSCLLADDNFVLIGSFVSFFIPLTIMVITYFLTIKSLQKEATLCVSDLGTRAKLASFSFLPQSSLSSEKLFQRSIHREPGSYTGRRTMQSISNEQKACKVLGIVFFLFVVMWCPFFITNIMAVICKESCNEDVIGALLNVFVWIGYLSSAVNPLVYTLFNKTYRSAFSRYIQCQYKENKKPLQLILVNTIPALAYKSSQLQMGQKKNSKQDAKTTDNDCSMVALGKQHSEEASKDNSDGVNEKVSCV
method-summary: 5-HT2A receptor radioligand binding ([3H]ketanserin)
Labelling field: enter T if recorded Ki is less than 300 nM. Enter F if it equals or exceeds that cut-off.

1) CCN(C)CCc1c[nH]c2ccccc12 [MET, N-methyl-N-ethyltryptamine, reference compound]    T
2) CN(C)CCc1c[nH]c2ccc(F)cc12 [Compound 5-F-DMT, reference compound]    T
3) CCNCCc1c[nH]c2ccc(F)c(O)c12    F
4) Oc1cccc2[nH]cc(CCNC3CC3)c12    F
5) CC(C)NCCc1c[nH]c2ccc(F)c(O)c12    F

###

method-summary: Stability in rat brain homogenate
Format: in vitro ADME, male Sprague Dawley rats
condition-details: rat brain homogenate, 1 μM, 37° C., 120 min
measure-name: % Compound Remaining (after 120 min) (%)

1. CNCCc1c[nH]c2c(F)ccc(O)c12 [Compound 34]    0
2. CN(C)CCc1c[nH]c2ccccc12 [DMT, N,N-dimethyltryptamine, reference compound]    0.0
3. NCCc1c[nH]c2c(F)ccc(O)c12 [Compound 32, 3-(2-aminoethyl)-7-fluoro-1H-indol-4-ol]    0
4. NCCc1c[nH]c2ccc(F)c(O)c12 [Compound 30, 3-(2-aminoethyl)-5-fluoro-1H-indol-4-ol]    0.1
5. CN(C)CCc1c[nH]c2cccc(O)c12 [Psilocin, psilocin, reference compound]    46.1
6. CCNCCc1c[nH]c2ccc(F)c(O)c12 [Compound 28]    0.4
7. CNCCc1c[nH]c2cc(F)cc(O)c12 [Compound 33]    0.4
8. CN(C)CCc1c[nH]c2ccc(F)cc12 [Compound 5-F-DMT, reference compound]    0.0
9. COc1ccc2[nH]cc(CCN(C)C)c2c1 [Compound 5-MeO-DMT, reference compound]    0.3

###

method-summary: Plasma pharmacokinetics in rats after intravenous administration
condition-details: male, Sprague Dawley, rat, plasma, iv, 1 mg/kg
Labelling field: enter Met if recorded C0 is less than 200 ng/mL. Enter Not met if it equals or exceeds that cut-off.

1) CN(C)CCc1c[nH]c2ccc(F)cc12 [Compound 5-F-DMT, reference compound]    Not met
2) CCNCCc1c[nH]c2cccc(O)c12 [Compound 5, 3-(2-(ethylamino)ethyl)-1H-indol-4-ol]    Not met
3) CNCCc1c[nH]c2cccc(O)c12    Met
4) CCNCCc1c[nH]c2ccc(F)c(O)c12    Not met
5) CC(C)NCCc1c[nH]c2ccc(F)c(O)c12    Not met
6) CN(C)CCc1c[nH]c2cccc(O)c12 [Psilocin, psilocin, reference compound]    Met
